Below: a set of entries, each annotated with reported composite z-score.
# tested_system: Follistatin (Homo sapiens) (UniProt P19883)
# Sequence (P19883 whole entry, looked up): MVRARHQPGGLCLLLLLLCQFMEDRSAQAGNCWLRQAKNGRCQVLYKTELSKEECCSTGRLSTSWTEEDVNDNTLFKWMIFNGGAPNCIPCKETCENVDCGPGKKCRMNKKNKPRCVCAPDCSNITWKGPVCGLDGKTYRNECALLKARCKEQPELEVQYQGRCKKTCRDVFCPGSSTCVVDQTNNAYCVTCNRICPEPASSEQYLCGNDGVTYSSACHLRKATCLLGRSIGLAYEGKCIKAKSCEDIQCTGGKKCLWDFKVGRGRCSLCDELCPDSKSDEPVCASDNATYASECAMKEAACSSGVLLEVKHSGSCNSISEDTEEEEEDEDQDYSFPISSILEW
# assay_protocol: follistatin binders on small-molecule microarrays, primary screen, biochemical, small-molecule microarray, 635/667 nm fluorescence (AID 1132)
# measurement_parameters: FST binding, 635 nm fluorescence, higher = more signal

smiles_structure: COCC(=C=CC[C@H](O)c1ccc(OCCO)cc1)C[C@H](O)COCc1ccccc1
composite z-score: 1.21

smiles_structure: [N-]=[N+]=NCc1ccccc1C[C@@]1(C(=O)N2CCCCC2)N=C(c2ccc(OCCCO)cc2)O[C@@H]1c1ccccc1N=[N+]=[N-]
composite z-score: 0.249

smiles_structure: NC(=O)NCC#Cc1ccc2c(c1)[C@]1(C(=O)N2)[C@H](C(=O)Nc2nc3ccccc3s2)[C@H]2C(=O)O[C@H](c3ccccc3)[C@H](c3ccccc3)N2[C@@H]1c1ccc(O)cc1
composite z-score: 1.28

smiles_structure: CCOC(=O)C1=CC[C@@H](c2cc(Cl)ccc2Cl)N(S(=O)(=O)c2ccc(C)cc2)[C@H]1c1ccc(OC)cc1
composite z-score: 0.258

smiles_structure: O=c1cccc(-c2ccc(C(F)(F)F)cc2)o1
composite z-score: -0.398

smiles_structure: C=C(CCCC)C(=O)CC[C@@H](OC(=O)c1cccnc1)c1ccccc1OCCO
composite z-score: 0.865

smiles_structure: CC(C)CN1C(=O)[C@@]2(c3ccc([N+](=O)[O-])cc3)CC(=O)N(CC34CC5CC(CC(C5)C3)C4)[C@@H]2c2ccc(CO)cc21
composite z-score: -1.16

smiles_structure: CCCC[C@@H]1C[C@H]1[C@@H](NC(=O)c1ccccc1)c1ccc(Cl)cc1
composite z-score: -2.37

Source: PubChem BioAssay
